The measurements presented in this section are drawn from the supplement of paper PMC9844399.

- Tested on: HeLa;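 also: High-content confocal imaging of branched-DNA amplified FISH in 384-well plates, Hoechst-defined nuclei, score is well value minus plate DMSO median over DMSO robust SD, four wells per compound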
- ASSAY_PROTOCOL: MALAT1 nuclear FISH intensity, robust Z-score vs DMSO; higher = more nuclear MALAT1 lncRNA, active = -3 or less
- CONDITION_SET: 10 µM; 6 h
Where a name gives a salt, the structure may show the parent alone.
Use MALAT1 nuclear FISH intensity to assign classes; range list: zone 1 (below -0.2), zone 2 (-0.2 to below 0.7), zone 3 (0.7 or more)

[[record]]
compound = "Cn1c(=O)c2nc[nH]c2n(C)c1=O [Theophylline]"
class_label = "zone 2"

[[record]]
compound = "CCCSc1ccc2[nH]c(NC(=O)OC)nc2c1 [Albendazole]"
class_label = "zone 1"

[[record]]
compound = "Cc1cccc(CN2CCN(C(c3ccccc3)c3ccc(Cl)cc3)CC2)c1 (stereo not given) [Meclizine Dihydrochloride]"
class_label = "zone 3"

[[record]]
compound = "C1COC(NC(C2CC2)C2CC2)=N1 [Rilmenidine]"
class_label = "zone 1"

[[record]]
compound = "CCC1=C[C@@H]2CN(C1)Cc1c([nH]c3ccccc13)[C@@](C(=O)OC)(c1cc3c(cc1OC)N(C)[C@H]1[C@@](O)(C(=O)OC)[C@H](OC(C)=O)[C@]4(CC)C=CCN5CC[C@]31[C@@H]54)C2 [Vinorelbine]"
class_label = "zone 1"

[[record]]
compound = "O=c1[nH]c2ccccc2c2ccccc12 [6(5H)-Phenanthridinone]"
class_label = "zone 2"

[[record]]
compound = "CC[C@@H]1/C=C(\\C)C[C@H](C)C[C@H](OC)[C@H]2O[C@@](O)(C(=O)C(=O)N3CCCC[C@H]3C(=O)O[C@H](/C(C)=C/[C@@H]3CC[C@H](Cl)[C@H](OC)C3)[C@H](C)[C@@H](O)CC1=O)[C@H](C)C[C@@H]2OC [Pimecrolimus]"
class_label = "zone 3"

[[record]]
compound = "CC(=O)O[C@H]1C(=O)[C@@]2(C)[C@H]([C@H](OC(=O)c3ccccc3)[C@]3(O)C[C@H](OC(=O)[C@H](O)[C@@H](NC(=O)c4ccccc4)c4ccccc4)C(C)=C1C3(C)C)[C@]1(OC(C)=O)CO[C@@H]1C[C@@H]2O [Taxol = Paclitaxel]"
class_label = "zone 1"

[[record]]
compound = "CCCCC/C=C\\C/C=C\\CC1OC1C/C=C\\CCCC(=O)O (stereo not given) [8,9-Epoxyeicosatrienoic acid]"
class_label = "zone 2"

[[record]]
compound = "O=c1c(-c2ccc(O)cc2)coc2cc(O)cc(O)c12 [Genistein]"
class_label = "zone 3"

[[record]]
compound = "Cc1nc2n(c(=O)c1CCN1CCC(c3noc4cc(F)ccc34)CC1)CCCC2O (stereo not given) [Paliperidone]"
class_label = "zone 3"

[[record]]
compound = "C[C@@H]1C[C@H]2[C@@H]3CCC4=CC(=O)C=C[C@]4(C)[C@@]3(F)[C@@H](O)C[C@]2(C)[C@@]1(O)C(=O)CO [Dexamethasone]"
class_label = "zone 2"

[[record]]
compound = "CC(=O)Oc1cc2c(s1)CCN(C(C(=O)C1CC1)c1ccccc1F)C2 (stereo not given) [Prasugrel]"
class_label = "zone 1"

[[record]]
compound = "NCCc1ccc(O)c(O)c1"
class_label = "zone 1"

[[record]]
compound = "CC(=O)CC(c1ccc([N+](=O)[O-])cc1)c1c(O)c2ccccc2oc1=O (stereo not given) [Acenocoumarol]"
class_label = "zone 1"

[[record]]
compound = "CO[C@@]12[C@H](COC(N)=O)C3=C(C(=O)C(C)=C(N)C3=O)N1C[C@@H]1N[C@@H]12 [Mitomycin C from Streptomyces caespitosus]"
class_label = "zone 2"

[[record]]
compound = "CC1=C(/C=C/C(C)=C\\C=C\\C(C)=C\\C(=O)O)C(C)(C)CCC1 [Alitretinoin]"
class_label = "zone 1"

[[record]]
compound = "CCN(CC)C(=O)/C(C#N)=C/c1cc(O)c(O)c([N+](=O)[O-])c1 [Entacapone]"
class_label = "zone 2"

[[record]]
compound = "C[C@]12CCC3=C4CCC(=O)C=C4CC[C@H]3[C@@H]1CC[C@@]2(O)CC#N [Dienogest]"
class_label = "zone 3"

[[record]]
compound = "CCCCCCCC/C=C\\CCCCCCCC(=O)OCC(CO)OC(=O)CCCCCCC/C=C\\CCCCCCCC (stereo not given) [1,2-Dioleoyl-glycerol (18:1)]"
class_label = "zone 2"

[[record]]
compound = "O=C1NC(=O)C(c2ccccc2)(c2ccccc2)N1 [Phenytoin]"
class_label = "zone 3"

[[record]]
compound = "Fc1ccc([C@@H]2CCNC[C@H]2COc2ccc3c(c2)OCO3)cc1"
class_label = "zone 3"

[[record]]
compound = "NCCCC[C@H](N[C@@H](CCc1ccccc1)C(=O)O)C(=O)N1CCC[C@H]1C(=O)O [Lisinopril Dihydrate]"
class_label = "zone 1"

[[record]]
compound = "Nc1nnc(-c2cccc(Cl)c2Cl)c(N)n1 [Lamotrigine]"
class_label = "zone 3"

[[record]]
compound = "CCN(CC)CCOc1ccc(C(=C(Cl)c2ccccc2)c2ccccc2)cc1 [Clomiphene citrate salt]"
class_label = "zone 3"

